Could you please report measured IC50 for the items listed next?
target_of_assay: P70S6K (T412E mutant, Millipore) (Homo sapiens, UniProt P23443, T412E)
Construct: purchased Millipore
Sequence (P23443 whole entry T412E): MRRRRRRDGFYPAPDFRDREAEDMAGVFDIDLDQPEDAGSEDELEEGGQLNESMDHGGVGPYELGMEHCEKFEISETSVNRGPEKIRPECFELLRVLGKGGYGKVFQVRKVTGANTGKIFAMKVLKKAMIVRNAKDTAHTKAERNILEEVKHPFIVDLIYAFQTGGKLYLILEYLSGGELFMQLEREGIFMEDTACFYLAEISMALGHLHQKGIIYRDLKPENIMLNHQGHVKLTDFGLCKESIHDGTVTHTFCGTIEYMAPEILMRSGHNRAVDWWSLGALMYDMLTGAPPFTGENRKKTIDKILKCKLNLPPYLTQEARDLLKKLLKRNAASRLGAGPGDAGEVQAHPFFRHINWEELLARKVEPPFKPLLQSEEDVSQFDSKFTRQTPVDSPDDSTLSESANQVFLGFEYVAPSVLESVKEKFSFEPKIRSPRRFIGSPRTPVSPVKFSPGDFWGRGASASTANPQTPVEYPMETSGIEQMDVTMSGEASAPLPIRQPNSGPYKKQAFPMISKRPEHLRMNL
assay_explanation: p70S6K enzyme assay
Format: biochemical
condition_label: class symbol; 3 nM P70S6K, 24 μM ATP; read-out: IC50 (p70S6K)

Observe how each entry below is paired with its result.
O=C(N[C@H](CN1C(=O)c2ccccc2C1=O)c1ccccc1)c1ccsc1Nc1ccnc2[nH]ccc12 :: < 100 nM
NC[C@@H](NC(=O)c1sccc1Nc1ccnc2[nH]ccc12)c1ccc(Cl)c(Cl)c1 (stereo in doubt) :: < 100 nM
O=C(NCCNCc1ccc(OC(F)(F)F)cc1)c1sccc1Nc1ccnc2[nH]ccc12 :: < 100 nM

Here is the next item to consider.
Read off the recorded IC50 for COC(=O)C(CO)NC(=O)c1sccc1Nc1ccnc2[nH]ccc12 (stereo not shown)
100 to 1000 nM

====

Field: pIC50. Provide a value for each of the compounds that follow.
target_of_assay: P70S6K (T412E mutant, Millipore) (Homo sapiens, UniProt P23443, T412E)
Construct: purchased Millipore
assay_explanation: p70S6K enzyme assay
Type: biochemical
condition_label: class symbol; 3 nM P70S6K, 24 μM ATP; read-out: IC50 (p70S6K)
pIC50: −log10 of the molar value.

# count of solved cases: 10
CC(C)[C@@H](CO)NC(=O)c1sccc1Nc1ccnc2[nH]ccc12 :: 6.00 to 7.00
O=C(NCCNCc1ccccc1)c1sccc1Nc1ncnc2[nH]ccc12 :: > 7.00
NC(CNC(=O)c1sccc1Nc1ccnc2[nH]ccc12)c1ccccc1 (stereo not drawn) :: > 7.00
NS(=O)(=O)c1ccc(CCNC(=O)c2sccc2Nc2ccnc3[nH]ccc23)cc1 :: > 7.00
NCC(NC(=O)c1ccsc1Nc1ccnc2[nH]ccc12)c1cccc(Cl)c1 (stereo not drawn) :: > 7.00
O=C(NCCOCc1ccccc1)c1sccc1Nc1ccnc2[nH]ccc12 :: > 7.00
Cc1cc(Nc2ccnc3[nH]ccc23)c(C(=O)NCCNCc2ccccc2)s1 :: 5.00 to 6.00
O=C(NC1CCCNC1)c1ccsc1Nc1ccnc2[nH]ccc12 (stereo not drawn) :: > 7.00
O=C(Nc1ccc(Cl)cc1)c1sccc1Nc1ccnc2[nH]ccc12 :: > 7.00
[N-]=[N+]=NCC(NC(=O)c1sccc1Nc1ccnc2[nH]ccc12)c1ccccc1 (stereo not drawn) :: > 7.00

Please go through the list and note pIC50 for each compound.
1. O=C(NCc1cccnc1)c1sccc1Nc1ccnc2[nH]ccc12
2. N#CC[C@@H](NC(=O)c1sccc1Nc1ccnc2[nH]ccc12)c1ccccc1
3. O=C(NCCc1c[nH]cn1)c1sccc1Nc1ccnc2[nH]ccc12
4. O=C(NCCNCc1ccc(C(F)(F)F)cc1)c1sccc1Nc1ccnc2[nH]ccc12

1. 6.00 to 7.00
2. > 7.00
3. 6.00 to 7.00
4. > 7.00

====

target_of_assay: P70S6K (T412E mutant, Millipore) (Homo sapiens, UniProt P23443, T412E)
Construct: purchased Millipore
assay_explanation: p70S6K enzyme assay
Format: biochemical
condition_label: class symbol; 3 nM P70S6K, 24 μM ATP; read-out: IC50 (p70S6K)
pIC50: −log10 of the molar value.
readout: pIC50

O=C(N[C@@H](CO)c1ccccc1)c1sccc1Nc1ccnc2[nH]ccc12 :: 5.00 to 6.00
Cc1cccc(CNCCNC(=O)c2sccc2Nc2ccnc3[nH]ccc23)c1 :: > 7.00
O=C(Nc1cccc(CNC(=O)c2sccc2Nc2ccnc3[nH]ccc23)c1)c1ccc(F)cc1 :: > 7.00
NC(=O)C[C@@H](NC(=O)c1sccc1Nc1ccnc2[nH]ccc12)c1ccccc1 :: > 7.00
O=C(N[C@H](CO)c1ccccc1)c1sccc1Nc1ccnc2[nH]ccc12 :: > 7.00

# batch: return pIC50 for each of the 4 compounds below
1. O=C(N[C@@H](CO)Cc1ccccc1)c1ccsc1Nc1ccnc2[nH]ccc12
2. N#CC[C@@H](NC(=O)c1ccsc1Nc1ccnc2[nH]ccc12)c1ccccc1
3. COC(=O)CNC(=O)c1sccc1Nc1ccnc2[nH]ccc12
4. O=C(NCCNCc1ccccn1)c1sccc1Nc1ccnc2[nH]ccc12

6.00 to 7.00
> 7.00
6.00 to 7.00
> 7.00

====

target_of_assay: P70S6K (T412E mutant, Millipore) (Homo sapiens, UniProt P23443, T412E)
Construct: purchased Millipore
assay_explanation: p70S6K enzyme assay
Type: biochemical
condition_label: class symbol; 3 nM P70S6K, 24 μM ATP; read-out: IC50 (p70S6K)
pIC50: −log10 of the molar value.
readout: pIC50

Example compounds with recorded pIC50:
O=C(NCCNc1ccccc1)c1sccc1Nc1ccnc2[nH]ccc12 :: > 7.00
Cc1ccc(C(CN)NC(=O)c2ccsc2Nc2ccnc3[nH]ccc23)cc1 (stereo not drawn) :: > 7.00
CN1CCN(c2cc(C(=O)Nc3cccc(CNC(=O)c4sccc4Nc4ccnc5[nH]ccc45)c3)ccn2)CC1 :: > 7.00
Cc1cc(Nc2ccnc3[nH]ccc23)c(C(=O)N[C@H](CO)c2ccccc2)s1 :: 6.00 to 7.00
COc1cccc(NC(=O)c2sccc2Nc2ccnc3[nH]ccc23)c1 :: 6.00 to 7.00

Batch: pIC50 for all items listed.
1. NCCCNC(=O)c1sccc1Nc1ccnc2[nH]ccc12
2. O=C(NCCNCc1cccnc1)c1sccc1Nc1ccnc2[nH]ccc12

["6.00 to 7.00", "6.00 to 7.00"]

Please state, for each entry, its recorded pIC50.
1. CNCC(NC(=O)c1sccc1Nc1ccnc2[nH]ccc12)c1cccc(Cl)c1 (stereo not drawn)
2. O=C(Nc1cccc(CNC(=O)c2sccc2Nc2ccnc3[nH]ccc23)c1)c1ccnc(N2CCOCC2)c1
3. O=C(Nc1cccc(CNC(=O)c2sccc2Nc2ccnc3[nH]ccc23)c1)c1ccnc(Cl)c1
4. O=C(NCc1ccccc1)c1ccsc1Nc1ccnc2[nH]ccc12
5. O=C(NCc1cccc(Cl)c1)c1occc1Nc1ncnc2[nH]ccc12

> 7.00
> 7.00
> 7.00
> 7.00
> 7.00

Would you be so kind as to report pIC50 for each listed record?
1. O=C(NCCNCc1ccccc1)c1sccc1Nc1ccnc2[nH]ccc12
2. O=C(NC[C@H]1CCCN1)c1sccc1Nc1ccnc2[nH]ccc12
3. COc1ccc(C(CN)NC(=O)c2ccsc2Nc2ccnc3[nH]ccc23)cc1OC (stereo not drawn)
4. N#CC(NC(=O)c1ccsc1Nc1ccnc2[nH]ccc12)c1ccccc1 (stereo not drawn)
5. O=C(NCCS(=O)(=O)Cc1ccccc1)c1sccc1Nc1ccnc2[nH]ccc12
6. NC[C@@H](NC(=O)c1sccc1Nc1ccnc2[nH]ccc12)c1cccc(Cl)c1 (stereo in doubt)

1. > 7.00
2. 6.00 to 7.00
3. > 7.00
4. > 7.00
5. 6.00 to 7.00
6. > 7.00

====

target_of_assay: P70S6K (T412E mutant, Millipore) (Homo sapiens, UniProt P23443, T412E)
Construct: purchased Millipore
assay_explanation: p70S6K enzyme assay
Format: biochemical
condition_label: class symbol; 3 nM P70S6K, 24 μM ATP; read-out: IC50 (p70S6K)
pIC50: −log10 of the molar value.
readout: pIC50

// known answers, use as guide
O=C(NC1CCNC1)c1ccsc1Nc1ccnc2[nH]ccc12 (stereo not drawn) [Example 103] :: > 7.00
O=C(NCCN1CCOCC1)c1sccc1Nc1ccnc2[nH]ccc12 [Example 16] :: 6.00 to 7.00
CN(C)CC(NC(=O)c1sccc1Nc1ccnc2[nH]ccc12)c1ccc(F)cc1 (stereo not drawn) [Example 166] :: > 7.00
CC(C)C[C@@H](CO)NC(=O)c1sccc1Nc1ccnc2[nH]ccc12 [Example 97] :: 6.00 to 7.00
O=C(NCCc1ccc(Br)cc1)c1sccc1Nc1ccnc2[nH]ccc12 [Example 27] :: > 7.00
COc1ccc(NC(=O)c2sccc2Nc2ccnc3[nH]ccc23)cc1 [Example 36] :: > 7.00

Kindly give each listed record's pIC50.
1. O=C(Nc1ccc(F)cc1)c1sccc1Nc1ccnc2[nH]ccc12 [Example 37]
2. NCC(NC(=O)c1ccsc1Nc1ccnc2[nH]ccc12)c1ccc(C(F)(F)F)cc1 (stereo not drawn) [Example 133]
3. O=C(NC1CCNC1)c1sccc1Nc1ccnc2[nH]ccc12 (stereo not drawn) [Example 6]

["> 7.00", "> 7.00", "> 7.00"]

====

Can you tell me IC50 for the items I'm about to list?
target_of_assay: P70S6K (T412E mutant, Millipore) (Homo sapiens, UniProt P23443, T412E)
Construct: purchased Millipore
assay_explanation: p70S6K enzyme assay
Type: biochemical
condition_label: class symbol; 3 nM P70S6K, 24 μM ATP; read-out: IC50 (p70S6K)

# example entries with known answers
O=C(NCCc1cccc(C(F)(F)F)c1)c1sccc1Nc1ccnc2[nH]ccc12 [Example 18] :: < 100 nM
CC(=O)NCCCCNC(=O)c1sccc1Nc1ccnc2[nH]ccc12 [Example 32] :: 100 to 1000 nM
CC(C)(C)OC(=O)N1CCC(NC(=O)c2sccc2Nc2ccnc3[nH]ccc23)C1 (stereo not shown) [Example 5] :: 100 to 1000 nM
COc1ccc(CNCCNC(=O)c2sccc2Nc2ccnc3[nH]ccc23)cc1 [Example 40] :: < 100 nM
O=C(NCc1cn(Cc2ccccc2)nn1)c1sccc1Nc1ccnc2[nH]ccc12 [Example 101] :: 100 to 1000 nM
O=C(NCc1cccc(Cl)c1)c1sccc1Nc1ncnc2[nH]ccc12 [Example 173] :: < 100 nM
CNCCNC(=O)c1sccc1Nc1ncnc2[nH]ccc12 [Example 185] :: 100 to 1000 nM
COc1cccc(CNC(=O)c2sccc2Nc2ccnc3[nH]ccc23)c1 [Example 94] :: < 100 nM
CC(C)(C)OC(=O)N(CCNC(=O)c1occc1Nc1ncnc2[nH]ccc12)Cc1ccccc1 [Example 177] :: 1000 to 10000 nM
O=C(NCCNCc1ccc(Cl)c(C(F)(F)F)c1)c1sccc1Nc1ccnc2[nH]ccc12 [Example 90] :: < 100 nM

Batch: IC50 for all items listed.
1. O=C(NCCNS(=O)(=O)c1ccccc1)c1sccc1Nc1ccnc2[nH]ccc12 [Example 71]
2. CC(O)CNC(=O)c1sccc1Nc1ccnc2[nH]ccc12 (stereo not shown) [Example 11]
3. COc1ccc(CCNC(=O)c2sccc2Nc2ccnc3[nH]ccc23)cc1 [Example 28]
4. O=C(NC1CCCNC1)c1sccc1Nc1ccnc2[nH]ccc12 (stereo not shown) [Example 9]
5. Cc1ccc([C@@H](CN)NC(=O)c2sccc2Nc2ccnc3[nH]ccc23)cc1 (stereo in doubt) [Example 122]
6. O=C(NCCc1cccs1)c1sccc1Nc1ccnc2[nH]ccc12 [Example 21]

1: 100 to 1000 nM; 2: 100 to 1000 nM; 3: < 100 nM; 4: 100 to 1000 nM; 5: < 100 nM; 6: < 100 nM

Give one value of IC50 per listed molecule.
1. O=C(NCCc1ccc(F)cc1)c1sccc1Nc1ccnc2[nH]ccc12 [Example 23]
2. CC(CO)NC(=O)c1sccc1Nc1ccnc2[nH]ccc12 (stereo not shown) [Example 10]
3. O=C(NCc1ccccc1)c1sccc1Nc1ncnc2[nH]ccc12 [Example 172]

< 100 nM
100 to 1000 nM
< 100 nM
